PROTOCOL_SUMMARY: in vitro
Assay type: in vitro ADME, mouse
CONDITION_SUMMARY: female, Tac:NCr:Foxn1nu/nu, mouse, other tissue homogenate, pH 7.2
ENDPOINT: remaining at 10 min, 2.3 mCi/mL
Units required after the number.

Problem: Annotate the molecule N=C(N)NCCC[C@H](NC(=O)[C@@H](Cc1ccc2ccccc2c1)NC(=O)CN1CCN(CC(=O)O)CCN(CC(=O)O)CCN(CC(=O)O)CC1)C(=O)N[C@@H](Cc1c[nH]c2ccccc12)C(=O)N[C@@H](CO)C(=O)N[C@@H](Cc1cnc[nH]1)C(=O)N[C@H](CCCNC(=N)N)C(=O)N[C@@H](Cc1c[nH]c2ccccc12)C(=O)N[C@@H](Cc1ccc(C(=O)c2ccccc2)cc1)C(=O)N1CCC[C@H]1C(=O)NNC(N)=O [177Lu-BRU-2813, metal not drawn] with its measured remaining at 10 min, 2.3 mCi/mL.
Result: 2.4%

----------
PROTOCOL_SUMMARY: In vitro metabolic stability in mouse liver homogenate at 37° C.
Assay type: in vitro ADME
CONDITION_SUMMARY: female, Tac:NCr:Foxn1nu/nu, mouse, tissue homogenate, pH 7.2
Non-standard residues stand in square brackets, D forms with d. Residues, ends and D or L forms follow the SMILES beside them. *: point of attachment. X1 = NC(=O)NNC(=O)[C@@H]1CCCN1C[C@H](Cc1ccc(C(=O)c2ccccc2)cc1)N*; DOTA = O=C(O)CN1CCN(CC(=O)O)CCN(CC(=O)*)CCN(CC(=O)O)CC1; d2Nal = N[C@H](Cc1ccc2ccccc2c1)C(=O)O
ENDPOINT: remaining at 1 h, 0.3 mg/mL (%)
Respond numerically; units are % and should not be typed.

Some molecules with known remaining at 1 h, 0.3 mg/mL results, for comparison:
{"MOLECULE": "N=C(N)NCCC[C@@H](NC(=O)[C@H](Cc1c[nH]cn1)NC(=O)[C@H](CO)NC(=O)[C@H](Cc1c[nH]c2ccccc12)NC(=O)[C@H](Cc1c[nH]cn1)NC(=O)[C@@H]1CCC(=O)N1)C(=O)N[C@@H](Cc1c[nH]c2ccccc12)C(=O)N[C@@H](Cc1ccc(O)cc1)CN1CCC[C@H]1C(=O)NNC(N)=O", "OUTPUT_UNIT": "%", "remaining at 1 h, 0.3 mg/mL": 100}
{"MOLECULE": "N=C(N)NCCC[C@H](NC(=O)[C@@H](Cc1ccc2ccccc2c1)NC(=O)CN1CCN(CC(=O)O)CCN(CC(=O)O)CCN(CC(=O)O)CC1)C(=O)N[C@@H](Cc1c[nH]c2ccccc12)C(=O)N[C@@H](CO)C(=O)N[C@@H](Cc1c[nH]cn1)C(=O)N[C@H](CCCNC(=N)N)C(=O)N[C@@H](Cc1c[nH]c2ccccc12)C(=O)N[C@@H](Cc1ccc(C(=O)c2ccccc2)cc1)C(=O)N1CCCC[C@H]1C(=O)NNC(N)=O", "OUTPUT_UNIT": "%", "remaining at 1 h, 0.3 mg/mL": 71.7}
{"MOLECULE": "N=C(N)NCCC[C@H](NC(=O)[C@@H](Cc1ccc2ccccc2c1)NC(=O)CN1CCN(CC(=O)O)CCN(CC(=O)O)CCN(CC(=O)O)CC1)C(=O)N[C@@H](Cc1c[nH]c2ccccc12)C(=O)N[C@@H](CO)C(=O)N[C@@H](Cc1c[nH]cn1)C(=O)N[C@H](CCCNC(=N)N)C(=O)N[C@@H](Cc1c[nH]c2ccccc12)C(=O)N[C@@H](Cc1ccc(C(=O)c2ccccc2)cc1)C(=O)N1CC[C@H]1C(=O)NNC(N)=O", "OUTPUT_UNIT": "%", "remaining at 1 h, 0.3 mg/mL": 14.9}

Problem: Annotate the molecule N=C(N)NCCC[C@H](NC(=O)[C@@H](Cc1ccc2ccccc2c1)NC(=O)CN1CCN(CC(=O)O)CCN(CC(=O)O)CCN(CC(=O)O)CC1)C(=O)N[C@@H](Cc1c[nH]c2ccccc12)C(=O)N[C@@H](CO)C(=O)N[C@@H](Cc1c[nH]cn1)C(=O)N[C@H](CCCNC(=N)N)C(=O)N[C@@H](Cc1c[nH]c2ccccc12)C(=O)N[C@@H](Cc1ccc(C(=O)c2ccccc2)cc1)CN1CCC[C@H]1C(=O)NNC(N)=O [Lu-BRU-3081] ({DOTA}-[d2Nal]RWSH[dR]W-X1) with its measured remaining at 1 h, 0.3 mg/mL.
Result: 100

Problem: Annotate the molecule N=C(N)NCCC[C@@H](NC(=O)[C@H](Cc1c[nH]cn1)NC(=O)[C@H](CO)NC(=O)[C@H](Cc1c[nH]c2ccccc12)NC(=O)[C@H](Cc1c[nH]cn1)NC(=O)[C@@H]1CCC(=O)N1)C(=O)N[C@@H](Cc1c[nH]c2ccccc12)C(=O)N[C@@H](Cc1ccc(O)cc1)C(=O)N1C[C@@H](N)C[C@H]1C(=O)NNC(N)=O [BRU-3123] (HELM PEPTIDE1{[Glp].H.W.S.H.[dR].W.Y.[N[C@H]1C[C@@H](C(=O)[*:2])N([*:1])C1].[O=C(NN[*:1])[*:2]].[am]}$$$$V2.0) with its measured remaining at 1 h, 0.3 mg/mL.
Result: 100

Problem: Annotate the molecule N=C(N)NCCC[C@H](NC(=O)[C@@H](Cc1ccc2ccccc2c1)NC(=O)CN1CCN(CC(=O)O)CCN(CC(=O)O)CCN(CC(=O)O)CC1)C(=O)N[C@@H](Cc1c[nH]c2ccccc12)C(=O)N[C@@H](CO)C(=O)N[C@@H](Cc1cnc[nH]1)C(=O)N[C@H](CCCNC(=N)N)C(=O)N[C@@H](Cc1c[nH]c2ccccc12)C(=O)N[C@@H](Cc1ccc(C(=O)c2ccccc2)cc1)C(=O)N1CCC[C@H]1C(=O)NNC(N)=O [177Lu-BRU-2813, metal not drawn] with its measured remaining at 1 h, 0.3 mg/mL.
Result: 12.4

Problem: Annotate the molecule N=C(N)NCCC[C@H](NC(=O)[C@@H](Cc1ccc2ccccc2c1)NC(=O)CN1CCN(CC(=O)O)CCN(CC(=O)O)CCN(CC(=O)O)CC1)C(=O)N[C@@H](Cc1c[nH]c2ccccc12)C(=O)N[C@@H](CO)C(=O)N[C@@H](Cc1c[nH]cn1)C(=O)N[C@H](CCCNC(=N)N)C(=O)N[C@@H](Cc1c[nH]c2ccccc12)C(=O)N[C@@H](Cc1ccc(C(=O)c2ccccc2)cc1)C(=O)N1C[C@H](F)C[C@H]1C(=O)NNC(N)=O with its measured remaining at 1 h, 0.3 mg/mL.
Result: 45.7

Problem: Annotate the molecule N=C(N)NCCC[C@@H](NC(=O)[C@H](Cc1c[nH]cn1)NC(=O)[C@H](CO)NC(=O)[C@H](Cc1c[nH]c2ccccc12)NC(=O)[C@H](Cc1c[nH]cn1)NC(=O)[C@@H]1CCC(=O)N1)C(=O)N[C@@H](Cc1c[nH]c2ccccc12)C(=O)N[C@@H](Cc1ccc(O)cc1)C(=O)N1CCC[C@H]1C(=O)NNC(N)=O [BRU-2477, reference compound] (HELM PEPTIDE1{[Glp].H.W.S.H.[dR].W.Y.P.[O=C(NN[*:1])[*:2]].[am]}$$$$V2.0) with its measured remaining at 1 h, 0.3 mg/mL.
Result: 11.9

Problem: Annotate the molecule N=C(N)NCCC[C@H](NC(=O)[C@@H](Cc1ccc2ccccc2c1)NC(=O)CN1CCN(CC(=O)O)CCN(CC(=O)O)CCN(CC(=O)O)CC1)C(=O)N[C@@H](Cc1c[nH]c2ccccc12)C(=O)N[C@@H](CO)C(=O)N[C@@H](Cc1c[nH]cn1)C(=O)N[C@H](CCCNC(=N)N)C(=O)N[C@@H](Cc1c[nH]c2ccccc12)C(=O)N[C@@H](Cc1ccc(C(=O)c2ccccc2)cc1)C(=O)N1C[C@H](N)C[C@H]1C(=O)NNC(N)=O with its measured remaining at 1 h, 0.3 mg/mL.
Result: 98.7

Sourced from patent US20120045393A1
